Overview of reported CC50 across a group of molecules:
- Tested on: NCI-H322M
- PROCEDURE DETAILS: NCI 60 cell panel SRB screen
- Assay type: cell-based
- SETTINGS: Homo sapiens, 5 log dose, 48 h, read-out: LC50 (the source's name)

| MOLECULE | CC50 |
| --- | --- |
| Clc1ccc(Nc2nnc(CNc3ccccc3)c3ccccc23)cc1 [Compound 16a] | > 25 µM |
| Cc1nnc(Nc2ccc(NC(=O)Nc3ccc(Cl)cc3)cc2)c2ccccc12 | 69.5 µM |
| Clc1ccc(Nc2nnc(COc3ccccc3)c3ccccc23)cc1 [Compound 17a] | > 25 µM |
| O=C(Nc1ccc(Cl)cc1)Nc1ccc(Nc2nncc3ccccc23)cc1 | > 100 µM |
| O=C(Nc1ccccc1)Nc1ccc(Oc2nnc(Cl)c3ccccc23)cc1 [Compound 13a] | > 25 µM |
| COc1cccc(NCc2nnc(Nc3ccc(Cl)cc3)c3ccccc23)c1 [Compound 16d] | > 25 µM |
| O=C(Nc1ccc(Cl)cc1)Nc1ccc(Oc2nncc3ccccc23)cc1 | 34.9 µM |
